The reader will find IC50 measurements below, all made with JAK1-JH1JH2 (Homo sapiens (Human)).
Sequence (P23458 574-1154): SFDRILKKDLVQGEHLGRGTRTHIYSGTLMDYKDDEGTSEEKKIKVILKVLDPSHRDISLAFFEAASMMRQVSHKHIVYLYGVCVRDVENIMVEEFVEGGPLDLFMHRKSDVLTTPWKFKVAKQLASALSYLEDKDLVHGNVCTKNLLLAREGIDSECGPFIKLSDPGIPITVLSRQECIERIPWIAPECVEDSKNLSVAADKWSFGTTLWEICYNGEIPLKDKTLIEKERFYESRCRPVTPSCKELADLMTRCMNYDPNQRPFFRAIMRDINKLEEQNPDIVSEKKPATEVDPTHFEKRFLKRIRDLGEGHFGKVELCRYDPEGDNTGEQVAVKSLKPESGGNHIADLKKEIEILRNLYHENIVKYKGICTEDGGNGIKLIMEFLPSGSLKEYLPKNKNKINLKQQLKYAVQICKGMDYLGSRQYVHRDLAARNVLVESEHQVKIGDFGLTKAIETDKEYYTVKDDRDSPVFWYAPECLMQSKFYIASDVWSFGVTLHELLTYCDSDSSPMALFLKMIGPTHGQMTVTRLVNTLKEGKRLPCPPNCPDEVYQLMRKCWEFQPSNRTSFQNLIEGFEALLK
Observable: IC50 (nM)

Here's what some known entries look like.
* COC(C)(C)CNC(=O)Cc1nc2cnc3[nH]ccc3c2n1[C@H]1CC[C@H](CC#N)CC1 | 0.2
* N#CC[C@H]1CC[C@H](n2c(CC(=O)NCc3ccc(F)cc3)nc3cnc4[nH]ccc4c32)CC1 | 0.2
* [H]/N=C(/c1ccccc1)N(O)Cc1nc2cnc3[nH]ccc3c2n1[C@H]1CC[C@H](CC#N)CC1 [Ex. 17B] | 0.5

[a] N#CC[C@H]1CC[C@H](n2c(Cn3c(C4CC4)noc3=O)nc3cnc4[nH]ccc4c32)CC1
[b] N#CC[C@H]1CC[C@H](n2c(-c3cncs3)nc3cnc4[nH]ccc4c32)CC1
[c] N#CC[C@H]1CC[C@H](n2c(CC(=O)NC3CCSCC3)nc3cnc4[nH]ccc4c32)CC1
Q: Please give the order of these molecules when sorted by IC50, largest value leading. # list labels per requested ordering
A: a, b, c
(a: 1.7 nM, b: 0.7 nM, c: 0.4 nM)
